biological target: Human a-thrombin (Homo sapiens); construct: Human a-thrombin and the assay agent Spectrozyme; test: Thrombin inhibition assay, Spectrozyme TH hydrolysis at 406 nm
Where a SMILES comes first, the peptide text is derived from it. [ ]: non-standard residue; d: D form.
readout label: Ki

Q) Give its Ki value. Item: N=C(N)NCCC[C@H](NC(=O)[C@@H]1CCCN1C(=O)[C@@H](Cc1ccccc1)NC(=O)CNC(=O)CNC(=O)CN)C(N)=O [(Gly)3 dPhePioArg, reference compound] (H-GGG[dF]PR-NH2)
A) ~209 µM
